Here the recorded z-score is given for each entry.
Experiment: HepG2 liver cancer cell viability effects, profiling panel, resazurin fluorescence, 24 h, PK04 Diversity Set (AID 1172); also: test concentration not given here
Details: higher = more signal
Respond numerically, and do not add a unit to the figure.

For orientation, consider the following solved cases.
molecule	z-score
COC(=O)C1=CC(CCCO)=CC(C2CC2)N(Cc2sc3ccccc3c2Cl)C=C1C(=O)OC (centres undefined)	-0.908
O=C1C2C=CC(C(O)c3cccs3)N(Nc3ccccc3F)C2C(=O)N1c1ccccc1 (centres undefined)	1.21

Tell me its z-score given CC(C)(C)N1CC=CC23O[C@@H]4C=CCOC(=O)[C@@H]4[C@H]2C(=O)N(CCCCCO)[C@@H]3C1=O (some centres undefined) as the entry. -0.308

// fetch z-score given entry O=C1O[C@@H](c2ccccc2)[C@@H](c2ccccc2)N2[C@@H](c3ccc(OCCO)cc3)[C@]3(C(=O)Nc4ccc(C#CC5=CCCCC5)cc43)[C@@H](C(=O)O)[C@H]12 0.332

Read the entry CCCCCCCCCCC(O)C1C=CC2C(=O)N(Cc3ccccc3)C(=O)C2N1n1cnnc1 (centres undefined) and write its reported z-score. -1.17

Please list z-score recorded for the molecule COCC1=C2[C@@H](CCc3ccccc3)OB(O)C[C@@H]2[C@@H]2C(=O)N(Cc3ccccc3)C(=O)[C@@H]2C1 0.0373

# return recorded z-score for input O=C1O[C@H](c2ccccc2)[C@H](c2ccccc2)N2[C@H]1[C@@H](C(=O)N1CCN(c3ncccn3)CC1)[C@]1(C(=O)Nc3ccccc31)[C@H]2c1ccc(OCCO)cc1 1.42

Given CN1CCC(CCCO)=CC1c1ccc(CN2CCCC2)cc1 (centres undefined) , respond with its z-score. 0.106

====

Test: small-molecule microarray binders of probe aWnt5a, primary screen, biochemical, biotinylated probe, 635/667 nm fluorescence (AID 1113);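 also: score merges 667 nm fluorescence intensity with signal-to-noise per printed feature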
Conditions: higher = more signal
result type: composite z-score
Returns: the value as a bare number; no unit string appended.

Before answering, review these 6 worked examples.
molecule	composite z-score
COc1ccc(C(=O)Nc2cccc(CN3C(=O)[C@@]4(O[C@@H](CCn5cc(CCO)nn5)[C@H]([Si](C)(C)c5ccc(OC)cc5)[C@H]4C)c4ccccc43)c2)cc1	-0.0403
COCCOC(=O)N1C(=O)[C@@]2(c3cc(C#CCNC(N)=O)ccc31)[C@H](C(=O)N1CCN(c3ncccn3)CC1)[C@H]1C(=O)O[C@H](c3ccccc3)[C@H](c3ccccc3)N1[C@@H]2c1ccccc1OCCO	0.0375
O=C1O[C@@H](c2ccccc2)[C@@H](c2ccccc2)N2[C@@H](c3ccc(O)cc3)[C@]3(C(=O)Nc4ccc(C#CC5=CCCCC5)cc43)[C@@H](C(=O)O)[C@H]12	-0.0077
Cc1ccc(S[C@]2(C(=O)NCC(C)C)CC(=O)N(Cc3ccccc3Cl)[C@@H]2c2ccc(CO)cc2)cc1	-0.228
COC(=O)[C@@]1(Cc2ccccc2N=[N+]=[N-])COC(c2ccc(OCCCO)cc2)=N1	-0.15
C=CC[C@@]1(C(=O)NCC(O)CO)N=C(c2ccc(OCCCO)cc2)O[C@@H]1c1ccccc1N=[N+]=[N-] (stereo not given in full)	-0.0846

Please examine the following record next.
Provide one value: measured composite z-score of C=CCC(OC(C)=O)[C@@H]1[C@@H](N(Cc2ccc(-c3ccccc3)cc2)C(=O)Cc2ccc(OC)cc2)c2cc(OCCCO)ccc2N1C(=O)c1ccc2ccccc2n1 (stereo not given in full) 0.0259

====

Each record here notes measured z-score.
Test: basal 3T3-L1 adipocyte mitochondrial potential changes, profiling panel, cell-based, JC-1 fluorescence, 3T3-L1 adipocytes, 24 h, 100 nL compound (AID 1168); also: test concentration not given here
Settings: JC-1 mitochondrial fluorescence, higher = more signal, called active from +8 up or from −8 down
// return just the number, without any unit appended

Output z-score of C=CC[C@@H](OC(=O)Nc1ccc(OC)cc1)c1ccc(O)c2ccccc12 -1.55

Could you please provide reported z-score for O=C(O)[C@@]1(Cc2ccccc2)N=C(c2ccc(OCCCO)cc2)O[C@H]1c1ccccc1 ? Thanks! 1.29

Recall and state the measured z-score for C=CCOC(=O)[C@H]1[C@@H]2C(=O)O[C@@H](c3ccccc3)[C@@H](c3ccccc3)N2[C@@H](c2ccc(OCCOC(=O)[C@@H]3C[C@@H]4C(=O)NCC(=O)N4[C@@H]3c3ccc(O)cc3)cc2)[C@]12C(=O)Nc1ccccc12 . -0.577

Tell me measured z-score for [N-]=[N+]=Nc1ccccc1[C@H]1OC(c2ccc(OCCCO)cc2)=N[C@@]1(CCS(=O)(=O)c1ccccc1)C(=O)O please. -1.65

====

Assay: binders of probe aFSTL3 on microarray, primary screen, stem cell growth factor project, biochemical, small-molecule microarray, fluorescence 635/667 (AID 1064);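 also: measures binding of the biotinylated anti-FSTL3 antibody to printed compounds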
Settings: higher = more signal
Outcome label depends on composite z-score relative to 0.1: at/above gives criterion met, below gives criterion not met.

molecule	label class
CCOc1cc(C(O)C2C=CC3C(=O)N(c4ccccc4)C(=O)C3N2Nc2ccc([N+](=O)[O-])cc2)ccc1O (configuration not stated)	criterion not met
CN(C)C(=O)[C@]1(CCC(=O)OC(C)(C)C)N=C(c2ccc(OCCCO)cc2)O[C@@H]1c1ccccc1N=[N+]=[N-]	criterion met
O=C1OCC=C[C@H]2OC34C=CCN(c5ccc6ccccc6c5)C(=O)[C@H]3N(CCCO)C(=O)[C@@H]4[C@@H]12 (some centres not stated)	criterion met

Does composite z-score meet or surpass 0.1 for O=C1OCCC=C[C@H]2OC34C=CCN(Cc5ccccc5)C(=O)[C@H]3N(CCCCCCO)C(=O)[C@@H]4C12 (some centres not stated) ? criterion met

For this molecule, is measured composite z-score 0.1 or higher? CCN(CC)c1ccc(N2CC=CC34O[C@@H]5/C=C\CCCOC(=O)C5[C@H]3C(=O)N(C(CO)C(C)C)[C@@H]4C2=O)cc1 (some centres not stated) criterion not met

Does the reported composite z-score for COCCOC(=O)N1C(=O)[C@@]2(c3cc(C#CCCO)ccc31)[C@H](c1ccc(O)cc1)N1[C@H](c3ccccc3)[C@H](c3ccccc3)OC(=O)[C@H]1[C@@H]2C(N)=O fall at or above the 0.1 mark? criterion met

Confirm if composite z-score reported for the molecule COc1cc2c(cc1O)C(C)N(Cc1cccc(OC(F)(F)F)c1)CC2 (configuration not stated) is 0.1 or above. criterion not met

====

Assay: S. cerevisiae RM11-1a growth modifiers, primary screen, strain RM11-1a, OD600, basal, 24 h (AID 1177);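 also: cultures grown under basal conditions with no added stressor; test concentration not given here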
Settings: OD600, 24 h, higher = more signal, called active from +8 up or from −8 down
Could you label it class 1 if measured z-score is 0.7 or higher, and class 0 otherwise?

Example cases with answers are listed next.
compound	label class
CN1C=C(C(=O)OCCS(C)(=O)=O)C(C(=O)OCCS(C)(=O)=O)=CC(CCCO)=CC1C1CC1 (configuration not stated)	class 0
CCCCC(O)C1C=CC2C(=O)N(C3CCCCC3)C(=O)C2N1Nc1ccc(OC)cc1 (configuration not stated)	class 0
Cc1cc(C)cc(N2C(=O)CS(=O)(=O)C2c2cccc([N+](=O)[O-])c2)c1 (configuration not stated)	class 0

Has COC(=O)C[C@@H]1C[C@H](C)[C@]2(O1)C(=O)N(Cc1ccccc1)c1ccc(NC(C)=O)cc12 a recorded z-score greater than or equal to 0.7? class 0

Is z-score for COCCCNC(=O)[C@@]1(c2ccc([N+](=O)[O-])cc2)CC(=O)N(CC23CC4CC(CC(C4)C2)C3)[C@@H]1c1ccc(CO)cc1 at or above 0.7? class 0

Please tell me: is the compound C=CCOC(=O)[C@@H]1[C@H]2C(=O)O[C@H](c3ccccc3)[C@H](c3ccccc3)N2[C@H](c2ccc(OCCOC(=O)[C@@H]3C[C@@H]4C(=O)NCC(=O)N4[C@@H]3c3cccc(OCCO)c3)cc2)[C@@]12C(=O)Nc1ccc(I)cc12 at or over 0.7 in terms of z-score? class 1

Check the entry CC(C)c1ccc(NN2C(C(O)c3c(F)cccc3Cl)C=CC3C(=O)N(c4ccccc4)C(=O)C32)cc1 (configuration not stated) : does z-score equal or exceed 0.7? class 1

Hi, just wondering whether CCOC(=O)C[C@H]1[C@H](OC(=O)Cc2ccc3c(c2)OCO3)[C@@H](NC(=O)C2CCCCC2)c2cc(OCCCO)ccc2N1C(=O)Cc1ccc(OC)cc1 shows z-score of 0.7 or higher. class 0

Kindly determine if z-score recorded for CC(C)(C)OC(=O)CC[C@@]1(C(=O)NCCN2CCOCC2)N=C(c2ccc(OCCCO)cc2)O[C@@H]1c1ccccc1 is above or exactly 0.7. class 0

Answer whether z-score of C=CC[C@]1(C(=O)N2CCOCC2)N=C(c2ccc(OCCCO)cc2)O[C@H]1c1ccccc1 is greater than or equal to 0.7. class 0

Form field: z-score at least 0.7? Entry: CN1C(=O)C2C(C1=O)C1C=C(CCCO)C2C(c2cccs2)N1C (configuration not stated) class 0

Threshold query (z-score >= 0.7) on C=C(CCCC)C(=O)CC[C@H](OC(=O)c1cccnc1)c1cccc(OCCO)c1 class 1
